Test system: ABL1-phosphorylated;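 note: KINOMEscan kinase panel screen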
measurementConditions: concentration: 1 μM, replicates: in singlicate; n = 1
measureName: %Inh (%)

INSERT INTO assay_data (molecule, value) VALUES
  ('Cn1cc(-c2cnc(N)c3c(-c4ccc5c(c4)CCN5C(=O)Cc4ccccc4)csc23)cn1', 89),
  ('Cc1ccc(NC(=O)c2ccnc(N3CCCCC3)c2)cc1-c1ccc(C(=O)NCC2CC2)cc1', 0),
  ('NCCC(NC(=O)c1cc(Br)c(-c2ccnc3[nH]ccc23)s1)c1ccccc1.O=C(O)C(F)(F)F.O=C(O)C(F)(F)F (centres unmarked)', 0),
  ('Cl.Cl.NC(CNC(=O)c1cc(Br)c(-c2ccnc3[nH]ccc23)s1)c1ccccc1 (centres unmarked)', 10),
  ('CN(c1ccc(NC(=O)N2CCN(CCCN3CCOCC3)CC2)cc1)c1ccnc(Nc2ccc(CS(C)(=O)=O)cc2)n1.Cl', 60);
